tested on: mouse (MBT2) bladder cancer cells; assay: MTT dye reduction cell viability assay on MBT2 cells; format: cell-based; conditions: MBT2 cells, 72 hours, MTT
observable: cytotoxicity (in words)

Here are 6 molecules together with their reported answers.
{"columns": ["molecule", "measuredTarget", "cytotoxicity (in words)"],
 "data": [
  ["[Mn+2].[O-][Cl+3]([O-])([O-])[O-].[O-][Cl+3]([O-])([O-])[O-].c1ccc(CNC2CC(NCc3ccccn3)CC(NCc3ccccn3)C2)nc1 (stereo not shown)", "mouse (MBT2) bladder cancer cells", "toxic"],
  ["[Cl-].[Cl-].[Mg+2].c1ccc(CNC2CC(NCc3ccccn3)CC(NCc3ccccn3)C2)nc1 (stereo not shown)", "mouse (MBT2) bladder cancer cells", "toxic"],
  ["[Cl-].[Cl-].[Cu+2].c1ccc(CNC2CC(NCc3ccccn3)CC(NCc3ccccn3)C2)nc1 (stereo not shown)", "mouse (MBT2) bladder cancer cells", "not toxic"],
  ["c1ccc(CNC2CC(NCc3ccccn3)CC(NCc3ccccn3)C2)nc1 (stereo not shown)", "mouse (MBT2) bladder cancer cells", "cytotoxic"],
  ["CC(=O)N(O)CCCCCNC(=O)CCC(=O)N(O)CCCCCNC(=O)CCC(=O)N(O)CCCCCN [desferrioxamine, reference compound]", "mouse (MBT2) bladder cancer cells", "cytotoxic"],
  ["[Ca+2].[Cl-].[Cl-].c1ccc(CNC2CC(NCc3ccccn3)CC(NCc3ccccn3)C2)nc1 (stereo not shown)", "mouse (MBT2) bladder cancer cells", "toxic"]
]}

# ---- query molecule ----
Inquiry: Using the record for [O-][Cl+3]([O-])([O-])[O-].[O-][Cl+3]([O-])([O-])[O-].[Zn+2].c1ccc(CNC2CC(NCc3ccccn3)CC(NCc3ccccn3)C2)nc1 (stereo not shown) , report its cytotoxicity (in words).
Reply text: not toxic
